assayed.target: human PD-L1 (human) (UniProt Q9NZQ7)
Sequence (Q9NZQ7 19-290): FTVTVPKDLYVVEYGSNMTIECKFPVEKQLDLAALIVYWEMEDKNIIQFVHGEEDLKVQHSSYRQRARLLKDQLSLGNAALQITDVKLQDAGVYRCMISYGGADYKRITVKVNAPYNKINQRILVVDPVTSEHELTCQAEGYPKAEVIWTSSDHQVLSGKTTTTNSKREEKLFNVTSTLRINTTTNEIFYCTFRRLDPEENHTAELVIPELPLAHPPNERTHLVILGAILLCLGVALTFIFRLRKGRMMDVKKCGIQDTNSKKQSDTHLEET
procedure.details: flow cytometry, CHO cells stably expressing PD-L1
measured.metric: MFI at 33.3 nM (MFI)

The examples below pair each entry with its known result.
variant CD80 IgV-Fc (inert) H18Y/E35D/M47V/V68L/A71G/D90G (Fc fusion) VIHVTKEVKEVATLSCGYNVSVEELAQTRIYWQKDKKMVLTMMSGDVNIWPEYKNRTIFDITNNLSILILGLRPSDEGTYECVVLKYEKGAFKREHLAEVTLSVKAD    47900
variant CD80 IgV-Fc (inert) H18V/A26K/E35D/M47L/V68M/A71G (Fc fusion) VIHVTKEVKEVATLSCGVNVSVEELKQTRIYWQKDKKMVLTMMSGDLNIWPEYKNRTIFDITNNLSIMILGLRPSDEGTYECVVLKYEKDAFKREHLAEVTLSVKAD    67300

I = variant CD80 IgV-Fc (inert) H18Y/E35D/M47V/V68M/A71G (Fc fusion) VIHVTKEVKEVATLSCGYNVSVEELAQTRIYWQKDKKMVLTMMSGDVNIWPEYKNRTIFDITNNLSIMILGLRPSDEGTYECVVLKYEKDAFKREHLAEVTLSVKAD
II = variant CD80 IgV-Fc (inert) H18F/A26D/E35D/D46E/M47T/V68M/A71G/D90G (Fc fusion) VIHVTKEVKEVATLSCGFNVSVEELDQTRIYWQKDKKMVLTMMSGETNIWPEYKNRTIFDITNNLSIMILGLRPSDEGTYECVVLKYEKGAFKREHLAEVTLSVKAD
Ask | Please indicate which entry, I or II , has the lower recorded MFI at 33.3 nM value. # answer = label of selected item
Reply | II
(II: 27500 MFI, I: 64900 MFI)

Origin of the recorded values: patent US20220177587A1
